# subject_of_test: Histone deacetylase 8 (Homo sapiens, UniProt Q9BY41)
# Sequence (Q9BY41 whole entry): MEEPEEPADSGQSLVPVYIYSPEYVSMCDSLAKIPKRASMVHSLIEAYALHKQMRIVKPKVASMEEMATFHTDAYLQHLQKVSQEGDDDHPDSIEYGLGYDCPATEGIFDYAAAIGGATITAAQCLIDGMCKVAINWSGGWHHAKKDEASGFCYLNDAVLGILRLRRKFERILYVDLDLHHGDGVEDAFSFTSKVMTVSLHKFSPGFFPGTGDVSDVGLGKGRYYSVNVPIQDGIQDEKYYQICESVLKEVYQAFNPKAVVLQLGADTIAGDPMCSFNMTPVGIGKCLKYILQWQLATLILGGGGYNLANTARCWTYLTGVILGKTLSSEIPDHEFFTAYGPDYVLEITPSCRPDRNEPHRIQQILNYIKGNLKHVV
# test_name: Inhibition of recombinant human HDAC8 using Fluor-de-lys substrate by fluorescence based microplate reader analysis
assay_readout: pIC50
For clarity, pIC50 is expressed as the negative log10 of concentration in mol/L.

I have this compound here, `COc1ccc(CC(=O)N[C@@H](CCC(=O)O)C(=O)NCc2ccccc2)cc1` , and I need its recorded pIC50.
5.42

Subsequent entry: `O=C(O)CC[C@H](NC(=O)Cc1ccc(Br)cc1)C(=O)NCc1ccccc1`
5.52

Subsequent entry: `COc1ccc(CNC(=O)[C@H](CCC(=O)O)NC(=O)Cc2ccc(Br)cc2)cc1`
5.54
